- targetUnderTest: Mammalian 20S proteasome (M20S)
- Construct: gene PSMA5; native 20S core particle purified from bovine liver; alpha7-beta7-beta7-alpha7; with Proteasome subunit beta type-1; Proteasome subunit beta type-2; Proteasome subunit beta type-3; Proteasome subunit beta type-4; Proteasome subunit beta type-5; Proteasome subunit beta type-6; Proteasome subunit beta type-7
- assayName: fluorogenic peptide hydrolysis, activator saturation curve
- Assay type: biochemical, Bos taurus
- conditionInfo: read-out: Kobs; activation; pH 7.5; 37 °C; 2% DMSO; site unknown
observedProperty: EC50
Your reply should be a number followed by the unit it is expressed in.

Entry CCCCC/C=C\C/C=C\C/C=C\C/C=C\CCCC(=O)Nc1ccc(O)cc1 — recorded EC50 = 12.1 µM

====

- targetUnderTest: Mammalian 20S proteasome (M20S)
- Construct: gene PSMA5; native 20S core particle purified from bovine liver; alpha7-beta7-beta7-alpha7; with Proteasome subunit beta type-1; Proteasome subunit beta type-2; Proteasome subunit beta type-3; Proteasome subunit beta type-4; Proteasome subunit beta type-5; Proteasome subunit beta type-6; Proteasome subunit beta type-7
- assayName: fluorogenic peptide hydrolysis, activator saturation curve (Hill fit)
- Format: biochemical, Bos taurus
- conditionInfo: activation (gate opening); nLPnLD-AMC substrate; 0.5 nM 20S; pH 7.5; 37 °C; 2% DMSO; allosteric, alpha intersubunit pockets; read-out: Kobs
observedProperty: EC50 (µM)
Answer in µM, number only, no unit symbol.

Entry C[C@H](NC(=O)[C@H](Cc1ccc(O)cc1)NC(=O)OCc1ccccc1)C(=O)O — recorded EC50 = 970

====

- targetUnderTest: Mammalian 20S proteasome (M20S)
- Construct: gene PSMA5; native 20S core particle purified from bovine liver; alpha7-beta7-beta7-alpha7; with Proteasome subunit beta type-1; Proteasome subunit beta type-2; Proteasome subunit beta type-3; Proteasome subunit beta type-4; Proteasome subunit beta type-5; Proteasome subunit beta type-6; Proteasome subunit beta type-7
- assayName: fluorogenic peptide hydrolysis, activator saturation curve
- Type: biochemical, Bos taurus
- conditionInfo: activation; pH 7.5; 37 °C; 2% DMSO; site unknown; read-out: Kobs
Here the recorded EC50 is given for each entry.
Answer in µM, number only, no unit symbol.

1) CCOC(=O)[C@]1(c2ccccc2)N=C(c2ccc(OC)cc2)N(Cc2ccccc2)[C@@H]1c1ccc(NCc2ccccc2)cc1 [TCH-165] :: 0.8

Now look at this one.
Entry O=C1NCN(c2ccccc2)C12CCN(CCCC(c1ccc(F)cc1)c1ccc(F)cc1)CC2 [Fluspirilene] — recorded EC50 = 2.7

Origin of the recorded values: paper PMC10349142
